Molecular target: T1, human IL-13 wild type (human, UniProt P35225 35-146)
T1 construct: also called h IL-13; h IL-13 wt
T1 sequence (P35225 other isoform, or with tags, fused parts or gaps limits assumed): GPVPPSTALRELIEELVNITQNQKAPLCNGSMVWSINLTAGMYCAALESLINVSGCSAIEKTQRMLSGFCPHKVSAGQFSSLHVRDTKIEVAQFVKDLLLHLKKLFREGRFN
Test: SPR (Biacore)
Here the recorded koff is given for each entry.

[
  {
    "binder": "13C5.5 (antibody, human IgG1, V domains shown, Humanized; The light chain row is printed 'VL 1305.5'; also called humanized 13C5; recombinant humanized antibody 13C5.5) VH: EVTLRESGPGLVKPTQTLTLTCTLYGFSLSTSDMGVDWIRQPPGKGLEWLAHIWWDDVKRYNPALKSRLTISKDTSKNQVVLKLTSVDPVDTATYYCARTVSSGYIYYAMDYWGQGTLVTVSS VL: DIQMTQSPSSLSASVGDRVTISCRASQDIRNYLNWYQQKPGKAPKLLIFYTSKLHSGVPSRFSGSGSGTDYTLTISSLQPEDIATYYCQQGNTLPLTFGGGTKVEIK",
    "koff (s⁻¹)": 0.000176
  },
  {
    "binder": "13C5-Chim (antibody, human IgG1, V domains shown, also called chimeric 13C5) VH: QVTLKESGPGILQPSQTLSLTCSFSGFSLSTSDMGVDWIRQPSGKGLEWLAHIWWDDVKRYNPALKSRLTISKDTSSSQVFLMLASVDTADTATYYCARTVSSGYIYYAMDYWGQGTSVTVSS VL: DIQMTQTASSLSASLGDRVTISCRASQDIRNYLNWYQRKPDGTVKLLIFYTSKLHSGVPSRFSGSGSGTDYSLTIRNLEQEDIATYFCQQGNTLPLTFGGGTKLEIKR",
    "koff (s⁻¹)": "9.65e-05"
  }
]
